- procedureDetails: Percent reduction of liver cholesterol ester levels after po administration of compound in cholesterol fed hamsters at a dose 25 mg/kg/day
- Assay type: functional
- conditionInfo: Cricetulus griseus
We begin with a simple list: items and their reported inhibition in vivo at 25 mg/kg/day.
Hi! Could you send only the number? It should be in %, unit omitted.

Example entries begin here.
# compound, measurementName, resultNumber
data = [
    ("COc1ccc([C@@H]2[C@@H](CCP(=O)(OC)c3ccccc3)C(=O)N2c2ccccc2)cc1 (stereo partly specified)", "inhibition in vivo at 25 mg/kg/day", 0),
    ("COc1ccc([C@@H]2[C@@H](P(=O)(O)CCc3ccccc3)C(=O)N2c2ccccc2)cc1", "inhibition in vivo at 25 mg/kg/day", 0),
    ("COc1ccc([C@@H]2[C@@H](CCP(=O)(O)c3ccccc3)C(=O)N2c2ccccc2)cc1", "inhibition in vivo at 25 mg/kg/day", 0),
]

Prompt line: Requested field: inhibition in vivo at 25 mg/kg/day. Item: COc1ccc([C@@H]2C(S(=O)(=O)CCc3ccccc3)C(=O)N2c2ccccc2)cc1 (stereo partly specified)
Response line: 54

Prompt line: Requested field: inhibition in vivo at 25 mg/kg/day. Item: COc1ccc([C@@H]2C(SCCc3ccccc3)C(=O)N2c2ccccc2)cc1 (stereo partly specified)
Response line: 97

Prompt line: Requested field: inhibition in vivo at 25 mg/kg/day. Item: COc1ccc([C@@H]2C([S+]([O-])CCc3ccccc3)C(=O)N2c2ccccc2)cc1 (stereo partly specified)
Response line: 97
